// data source = patent US20140378382A1

# target desc: T1, PTHR-1 (species and cells not stated for the assay) (Homo sapiens (Human), UniProt Q03431 27-593)
# T1 sequence: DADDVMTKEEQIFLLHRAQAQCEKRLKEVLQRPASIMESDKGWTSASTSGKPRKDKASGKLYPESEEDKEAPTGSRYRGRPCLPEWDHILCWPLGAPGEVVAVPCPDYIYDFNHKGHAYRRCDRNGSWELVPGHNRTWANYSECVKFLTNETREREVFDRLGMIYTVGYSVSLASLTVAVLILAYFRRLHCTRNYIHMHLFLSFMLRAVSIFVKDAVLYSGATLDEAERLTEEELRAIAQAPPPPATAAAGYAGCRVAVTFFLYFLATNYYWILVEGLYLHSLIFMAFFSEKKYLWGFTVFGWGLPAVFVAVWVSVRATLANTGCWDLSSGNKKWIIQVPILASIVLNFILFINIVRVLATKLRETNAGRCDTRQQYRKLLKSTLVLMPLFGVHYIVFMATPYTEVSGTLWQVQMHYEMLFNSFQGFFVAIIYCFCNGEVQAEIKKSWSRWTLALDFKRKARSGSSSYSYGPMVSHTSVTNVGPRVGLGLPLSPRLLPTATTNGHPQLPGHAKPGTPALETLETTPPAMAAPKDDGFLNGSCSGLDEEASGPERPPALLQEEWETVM
# procedure details: cell-based or functional assay
Non-standard residues stand in square brackets, D forms with d. Primed or numbered codes have the meaning given here. No end group written: not given here. APC = aminopyrrolidine carboxylic acid (2-aminopyrrolidine-4-carboxylic acid); ACPC(3) = 2-aminocyclopentane carboxylic acid (cyclic beta residue); ACPC″ = 2-aminocyclopentane carboxylic acid (X); β3hW = N[C@H](CC(=O)O)Cc1c[nH]c2ccccc12; hArg = N=C(N)NCCCC[C@H](N)C(=O)O; β3hE = N[C@@H](CCC(=O)O)CC(=O)O; β3hF = N[C@H](CC(=O)O)Cc1ccccc1; β3hK = NCCCC[C@H](N)CC(=O)O; β3hM = CSCC[C@H](N)CC(=O)O; β3hD = NC(CC(=O)O)CC(=O)O; Aib = CC(C)(N)C(=O)O
Would you kindly list Fold PTH for each of these binders?
One number for each entry, in fold.

A selection of reference data follows.
[
  {
    "binder": "AVAEIQ[ACPC″]MHQ[hArg]AKWLNSMRRVEWLRKKLQDVHNF-NH2 (not fully specified (residues 14, 18, 22, 26, 30, 34)) [M-D6]",
    "Fold PTH / fold": 5.4
  },
  {
    "binder": "[ACPC″]V[Aib]EIQ[ACPC″]MHQ[hArg]AK[ACPC″]LNS[ACPC″]RRV[APC]WLR[APC]KLQ[ACPC″]VHN[ACPC″]-NH2 [M-FcycD6_ACPC(1,7)]",
    "Fold PTH / fold": 21.8
  },
  {
    "binder": "AVAEIQ[ACPC″]MHQ[hArg]AK[ACPC″]LNS[ACPC″]RRV[APC]WLR[APC]KLQ[ACPC″]VHN[ACPC″]-NH2 [M-FcycD6]",
    "Fold PTH / fold": 6.3
  },
  {
    "binder": "[ACPC″]V[Aib]E[ACPC″]Q[ACPC″]MHQ[hArg]AK[ACPC″]LNS[ACPC″]RRV[APC]WLR[APC]KLQ[ACPC″]VHN[ACPC″]-NH2 [M-X1,5,7-FcycD6]",
    "Fold PTH / fold": 9.5
  },
  {
    "binder": "[ACPC″]V[Aib]E[ACPC″]Q[ACPC″]MHQ[hArg]AK[β3hW]LNS[β3hM]RRV[β3hE]WLR[β3hK]KLQ[β3hD]VHN[β3hF]-NH2 (also: β3 residues (bold, underlined) not marked in the text) [M-X1,5,7-D6]",
    "Fold PTH / fold": 9.7
  },
  {
    "binder": "[ACPC″]V[Aib]EIQ[ACPC″]MHQ[hArg]AKWLNSMRRVEWLRKKLQDVHNF-NH2 [M-ACPC(1,7)]",
    "Fold PTH / fold": 6.3
  },
  {
    "binder": "[ACPC″]V[Aib]EIQ[ACPC″]MHQ[hArg]AK[β3hW]LNS[β3hM]RRV[β3hE]WLR[β3hK]KLQ[β3hD]VHN[β3hF]-NH2 (also: β3 residues (bold, underlined) not marked in the text) [M-D6_ACPC(1,7)]",
    "Fold PTH / fold": 10.2
  },
  {
    "binder": "[ACPC″]V[Aib]E[ACPC″]Q[ACPC″]MHQ[hArg]AKWLNSMRRVEWLRKKLQDVHNF-NH2 [M-ACPC(1,5,7)]",
    "Fold PTH / fold": 4.9
  }
]

QUERY: Endpoint output: Fold PTH of H[ACPC(3)]V[Aib]E[ACPC(3)]Q[ACPC(3)]MHQ[hArg]AK[ACPC(3)]LNS[ACPC(3)]RRV[β3hE]WLR[APC]KLQ[β3hD]VHN[ACPC(3)]-NH2 (not fully specified) [M-X1,5,7-CycD6] . Value?
RESULT: 3.8
